- Tested on: ATP;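 further: ATP exposure 15 min at 22 °C before imaging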
- protocolDescription: switch fluorescence ratio, 500 uM ATP over buffer (Cy3 cluster intensity, sum of 5 cycles each) (fold (ratio)); higher = stronger signal-on switching upon ATP binding; sequences stand for … in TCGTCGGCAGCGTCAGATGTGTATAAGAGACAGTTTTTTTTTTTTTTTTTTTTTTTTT…TC
- testSettings: aptamer strand: ATP DNA aptamer (quencher-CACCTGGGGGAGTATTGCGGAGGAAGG + anchor), 100 nM annealed; ATP concentration: 500 uM
Listing of entries alongside the reported switch fluorescence ratio.

Request: Would you kindly share the measured switch fluorescence ratio for ATGGGGGTTA ?
Response: 0.987

Request: Moving on to GCGAAAAACG
Response: 1.03

Request: Okay, and ATAAGGAAGT ?
Response: 1.02

Request: Next sequence: TTCCTGAAGG
Response: 1.02

Request: Next: GGATTTTTGT
Response: 0.997

Request: Same question for TTTTCTTGGT please.
Response: 1.01

Request: Queued: AAGAGTCGTA
Response: 0.969

Request: Try AACTAGGTGT next.
Response: 1.15

====

- System: ATP;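 further: ATP exposure 15 min at 22 °C before imaging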
- protocolDescription: switch fluorescence ratio, 500 uM ATP over buffer (Cy3 cluster intensity, sum of 5 cycles each) (fold (ratio)); higher = stronger signal-on switching upon ATP binding; sequences stand for … in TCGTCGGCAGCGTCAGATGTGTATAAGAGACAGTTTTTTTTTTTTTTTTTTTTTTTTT…TC
- testSettings: aptamer strand: ATP DNA aptamer (quencher-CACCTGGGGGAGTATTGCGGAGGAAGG + anchor), 100 nM annealed; ATP concentration: 500 uM
Measured switch fluorescence ratio accompanies every entry in the list below.
Lab note: record the figure alone, no unit after it.

Solved cases below.
- primarySequence: "AATTGTGAAA"
  switch fluorescence ratio: 1.01
- primarySequence: "AAAAAATCGC"
  switch fluorescence ratio: 1.09

Request: For the record GTTACCCGA , what value of switch fluorescence ratio is listed for ATP?
Response: 0.98

Request: Again, but for AGGTTGCGAT
Response: 1.01

Request: Field entry: ATTGAATAGG
Response: 1.01

Request: Same again, this time with CGTTGGAATG
Response: 0.981

Request: For TGGTTTAATA then?
Response: 0.985

Request: Another: TTCTGTTTTT
Response: 1.09

Request: Another sequence to check: AGGGGATCAA
Response: 0.985

Request: Next entry: GGTTTTGCAC
Response: 1.03

Request: What do you get for GGAGGAAGAT ?
Response: 1.05

Request: TCAGATATTG
Response: 0.992

Request: Similarly, AGTTAGGAGT ?
Response: 0.989

====

- System: ATP;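 further: ATP exposure 15 min at 22 °C before imaging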
- protocolDescription: switch fluorescence ratio, 500 uM ATP over buffer (Cy3 cluster intensity, sum of 5 cycles each) (fold (ratio)); higher = stronger signal-on switching upon ATP binding; sequences stand for … in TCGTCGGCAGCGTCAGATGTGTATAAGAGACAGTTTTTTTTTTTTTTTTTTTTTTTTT…TC
- testSettings: aptamer strand: ATP DNA aptamer (quencher-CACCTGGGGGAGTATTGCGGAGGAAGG + anchor), 100 nM annealed; ATP concentration: 500 uM
assayEndpoint: switch fluorescence ratio
I'd appreciate a reply containing only the number, no unit.

Examples with their reported switch fluorescence ratio follow.
- primarySequence: "TGAGATTAGT"
  switch fluorescence ratio: 1.01
- primarySequence: "GTAAGAAAGA"
  switch fluorescence ratio: 1.02
- primarySequence: "AGTAGGACGC"
  switch fluorescence ratio: 1.02

Query sequence follows.
Request: // switch fluorescence ratio lookup, key: ACGTATGATA
Response: 1.16

====

- Tested on: ATP;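 further: ATP exposure 15 min at 22 °C before imaging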
- protocolDescription: switch fluorescence ratio, 500 uM ATP over buffer (Cy3 cluster intensity, sum of 5 cycles each) (fold (ratio)); higher = stronger signal-on switching upon ATP binding; sequences stand for … in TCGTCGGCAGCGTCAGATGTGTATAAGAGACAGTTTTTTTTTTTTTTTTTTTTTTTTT…TC
- testSettings: aptamer strand: ATP DNA aptamer (quencher-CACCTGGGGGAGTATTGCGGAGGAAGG + anchor), 100 nM annealed; ATP concentration: 500 uM
assayEndpoint: switch fluorescence ratio
API doc: respond with a numeric literal and nothing else, no unit.

Worked set:
- primarySequence: "TGGCGGATTT"
  targetSystem: "ATP"
  switch fluorescence ratio: 0.998
- primarySequence: "TCTGTGGCAA"
  targetSystem: "ATP"
  switch fluorescence ratio: 1.18
- primarySequence: "CGCACCGGTG"
  targetSystem: "ATP"
  switch fluorescence ratio: 1.02

Request: Notebook entry, ATP assay: switch fluorescence ratio of AGGAGGGACT = ?
Response: 1

Request: Next entry: ACATACAGGG
Response: 1.31

Request: Same question for GATACATGGG please.
Response: 0.985

Request: Further, for CGTGACCAGG ?
Response: 1.14

Request: Lookup GGGTGAAAGG
Response: 0.996

Request: Query CGAGGCCTCG next
Response: 0.994

Request: Continue with TAGTTGGTTG
Response: 0.974

Request: Now consider AGATGGTCAC .
Response: 1.03

Request: Also check GAAGGCAAGG
Response: 1.07

Request: Same again, this time with TTTGATAAAG
Response: 1.03

Request: Follow-up entry: AAGTGAAGCT
Response: 1

====

- System: ATP;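 further: ATP exposure 15 min at 22 °C before imaging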
- protocolDescription: switch fluorescence ratio, 500 uM ATP over buffer (Cy3 cluster intensity, sum of 5 cycles each) (fold (ratio)); higher = stronger signal-on switching upon ATP binding; sequences stand for … in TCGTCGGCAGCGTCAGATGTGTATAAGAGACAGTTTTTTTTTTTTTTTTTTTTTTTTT…TC
- testSettings: aptamer strand: ATP DNA aptamer (quencher-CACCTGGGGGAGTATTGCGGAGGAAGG + anchor), 100 nM annealed; ATP concentration: 500 uM
assayEndpoint: switch fluorescence ratio

- primarySequence: "GAAAAGGGCG"
  switch fluorescence ratio: 1.01
- primarySequence: "CGGGGGGTTC"
  switch fluorescence ratio: 1
- primarySequence: "ATAAATGTCA"
  switch fluorescence ratio: 1.01

Request: Query: switch fluorescence ratio; subject: TGAATGGTTT
Response: 0.997

Request: Item: TGAAGGCCTT
Response: 0.995

Request: Another sequence to look at: TAGTATTTGC
Response: 1.14

Request: Another: CGGTTGGGCC
Response: 0.993

Request: Next entry: AGTAAAAAGT
Response: 1.02

Request: Would you kindly repeat that for AAAGTAGCCT ?
Response: 1.08

Request: Param item: GGTCTGGGAT
Response: 0.994

Request: Another sequence: AAAATCAGAG
Response: 0.97

Request: Ok, now GCTGGTATTG
Response: 1

Request: // query: GGGGGCGCGT
Response: 1.02

Request: Can you handle GGATGTCCAG next?
Response: 0.947

Request: Moving on to CGTTTGTGTG
Response: 1.01

Request: Also need ATAAACTAGA , thanks.
Response: 1.01

Request: Consider next the sequence CTTGAAAAGG in the same way.
Response: 1

Request: Then this sequence: TCTTATTGGG
Response: 0.995

Request: // query: GGGAGGGTGA
Response: 0.99

Request: What do we get for GTTACTTTGT ?
Response: 0.992

====

# switch fluorescence ratio per record follows
- Test system: ATP;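 further: ATP exposure 15 min at 22 °C before imaging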
- protocolDescription: switch fluorescence ratio, 500 uM ATP over buffer (Cy3 cluster intensity, sum of 5 cycles each) (fold (ratio)); higher = stronger signal-on switching upon ATP binding; sequences stand for … in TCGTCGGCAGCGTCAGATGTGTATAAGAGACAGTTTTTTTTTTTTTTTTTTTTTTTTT…TC
- testSettings: aptamer strand: ATP DNA aptamer (quencher-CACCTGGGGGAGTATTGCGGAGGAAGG + anchor), 100 nM annealed; ATP concentration: 500 uM
Reply with just the number.

Here is how some sequences turned out for switch fluorescence ratio.
- primarySequence: "TGTTAGTGTT"
  switch fluorescence ratio: 1.03
- primarySequence: "TGCACGTTGC"
  switch fluorescence ratio: 1.02
- primarySequence: "AACCAGTTAG"
  switch fluorescence ratio: 1.01
- primarySequence: "GAAATAGGGC"
  switch fluorescence ratio: 0.997
- primarySequence: "GGGGCGTCTG"
  switch fluorescence ratio: 1.04
- primarySequence: "AAGTTCGTGC"
  switch fluorescence ratio: 1.02
- primarySequence: "GCCGGGTCCG"
  switch fluorescence ratio: 0.994
- primarySequence: "TCGTGGGTAT"
  switch fluorescence ratio: 0.998
- primarySequence: "TTTAAAGGGT"
  switch fluorescence ratio: 1.01
- primarySequence: "TGCAGCTGGA"
  switch fluorescence ratio: 0.977

Request: # query: switch fluorescence ratio of entry GCTTAGGATT
Response: 1.01

Request: Same read-out for TTCGCCAGAT ?
Response: 1.04

Every entry's value here was drawn from the supplement of paper PMC10126150.
